- Tested target: T1, human beta CGRP (SEQ ID NO: 81) (human, not fully specified)
- T1 peptide: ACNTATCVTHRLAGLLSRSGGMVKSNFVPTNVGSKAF
- Assay comment: cell-based or functional assay
cAMP assay IC50, SK-N-MC cells values for the binders below.
Assay metric: cAMP assay IC50, SK-N-MC cells (nM)

cysteine-free lipocalin mutein SEQ ID NO: 29 (designed binder, biotinylated by NHS chemistry for capture in SPR) QDSTSDLIPAPPLSKVPLQQNFQDNQFQGKWYVVGRAGNDVLREDKDPEKMEATIYELKEDKSYNVTDVGFVQKRLMYVTHTFVPGSQPGEFTLGNIESYPGVTSALVRVVSTDYNQHAMVFVKLVKQNRELFEITLYGRTKELTSELKENFIRFSKSLGLPENHIVFPVPIDQIDGSAWSHPQFEK = 0.91
cysteine-free lipocalin mutein SEQ ID NO: 37 (designed binder, biotinylated by NHS chemistry for capture in SPR) QDSTSDLIPAPPLSKVPLQQNFQDNQFQGKWYVVGWAGNTLLREDKDPIKMQAMIYELKEDKSYNVTWVYFADKKNNYHIETFVPGSQPGEFTLGTIKSYPGETPILVRVVSTNYNQHAMVFFKGVNQNREIFEIVLYGRTKELTNELKENFIRFSKSLGLPENHIVFPVPIDQLIDGSAWSHPQFEK = 0.77
cysteine-free lipocalin mutein SEQ ID NO: 33 (designed binder, biotinylated by NHS chemistry for capture in SPR) QDSTSDLIPAPPLSKVPLQQNFQDNQFQGKWYVVGWAGNTLLREDKDPIKMQAMIYELKEDKSYNVTWVYFADKKLNYHIETFVPGSQPGEFTLGTIKSYPGETPILVRVVSTNYNQHAMVFFKGVNQNREIFEIVLYGRTKELTNELKENFIRFSKSLGLPENHIVFPVPIDQWIDGSAWSHPQFEK = 0.24
